Data credit: patent US8828930B2

- Target system: NS3/4A protease gt 1b (Hepatitis C virus genotype 1b, UniProt P26663)
- Assay protocol: HCV NS3 protease time-resolved fluorescence (TRF) assay, NS3/4A inhibitory activity (Ki), gt 1b
- Test conditions: NS3/4A enzyme
The following compounds are shown together with reported Ki values.
Observed property: Ki

{"Smiles entry": "CC1(S(=O)(=O)NC(=O)[C@@]23C[C@H]2/C=C\\CCCCC[C@@H]2NC(=O)O[C@]4(C)C[C@H]4CCCCCc4nc5ccccc5nc4O[C@@H]4C[C@@H](C(=O)N3)N(C4)C2=O)CC1", "Measurement": "0.02 nM"}
{"Smiles entry": "O=C1N[C@H]2CCCCC/C=C\\[C@@H]3C[C@@]3(C(=O)NS(=O)(=O)C3CC3)NC(=O)[C@@H]3C[C@H](CN3C2=O)Oc2nc3ccccc3nc2CCCCC[C@@H]2C[C@H]2O1", "Measurement": "0.02 nM"}
{"Smiles entry": "C[C@@]12C[C@H]1CCCCCc1nc3ccccc3nc1O[C@@H]1C[C@H]3C(=O)N[C@]4(C(=O)NS(=O)(=O)C5CC5)C[C@H]4/C=C\\CCCCC[C@H](NC(=O)O2)C(=O)N3C1", "Measurement": "0.02 nM"}
{"Smiles entry": "CC1(S(=O)(=O)NC(=O)[C@@]23C[C@H]2/C=C\\CCCCC[C@@H]2NC(=O)O[C@@H]4C[C@H]4CCCCCc4nc5ccccc5nc4O[C@@H]4C[C@@H](C(=O)N3)N(C4)C2=O)CC1", "Measurement": "0.03 nM"}
{"Smiles entry": "COc1ccc2nc3c(nc2c1)O[C@@H]1C[C@H]2C(=O)N[C@]4(C(=O)NS(=O)(=O)C5(C)CC5)C[C@H]4/C=C\\CCCCC[C@H](NC(=O)O[C@]4(C)C[C@H]4CCCCC3)C(=O)N2C1", "Measurement": "0.03 nM"}

----------
The following molecules are shown together with reported pKi values.
- Target system: NS3/4A protease gt 1b A156V (Hepatitis C virus genotype 1b, UniProt P26663, A1182V)
- Assay protocol: HCV NS3 protease time-resolved fluorescence (TRF) assay, NS3/4A inhibitory activity (Ki), gt 1b A156V
- Protocol: The HCV NS3 protease inhibitory activity of the present compounds may be tested using assays known in the art. One such assay is HCV NS3 protease time-resolved fluorescence (TRF) assay as described below and in WO 2006/102087. […] Ki is determined by an NS3 protease assay. […] Product fluorescence is detected using either a VICTOR V2 or FUSION fluorophotometer (PERKIN ELMER LIFE AND ANALYTICAL SCIENCES) with excitation at 340 nm and emission at 615 nm with a 400 μs delay. […]
pKi: −log10 of the molar value.

{"Smiles entry": "COc1ccc2nc3c(nc2c1)O[C@@H]1C[C@H]2C(=O)N[C@]4(C(=O)NS(=O)(=O)C5CC5)C[C@H]4/C=C\\CCCCC[C@H](NC(=O)O[C@]4(C)C[C@H]4CCCCC3)C(=O)N2C1", "Target system": "NS3/4A protease gt 1b A156V (Hepatitis C virus genotype 1b, UniProt P26663, A1182V)", "pKi": 9.15}
{"Smiles entry": "CC1(S(=O)(=O)NC(=O)[C@@]23C[C@H]2/C=C\\CCCCC[C@@H]2NC(=O)O[C@@H]4CCC[C@H]4CCCCCc4nc5ccccc5nc4O[C@@H]4C[C@@H](C(=O)N3)N(C4)C2=O)CC1", "Target system": "NS3/4A protease gt 1b A156V (Hepatitis C virus genotype 1b, UniProt P26663, A1182V)", "pKi": 8.92}
{"Smiles entry": "COc1ccc2nc3c(nc2c1)O[C@@H]1C[C@H]2C(=O)N[C@]4(C(=O)NS(=O)(=O)C5CC5)C[C@H]4/C=C\\CCCCC[C@H](NC(=O)O[C@@H]4CCC[C@H]4CCCCC3)C(=O)N2C1", "Target system": "NS3/4A protease gt 1b A156V (Hepatitis C virus genotype 1b, UniProt P26663, A1182V)", "pKi": 8.80}
{"Smiles entry": "O=C1N[C@H]2CCCCC/C=C\\[C@@H]3C[C@@]3(C(=O)NS(=O)(=O)C3CC3)NC(=O)[C@@H]3C[C@H](CN3C2=O)Oc2nc3ccccc3nc2CCCCC[C@@H]2C[C@H]2O1", "Target system": "NS3/4A protease gt 1b A156V (Hepatitis C virus genotype 1b, UniProt P26663, A1182V)", "pKi": 9.05}
